B1: TPR 5TU (parent)
chain: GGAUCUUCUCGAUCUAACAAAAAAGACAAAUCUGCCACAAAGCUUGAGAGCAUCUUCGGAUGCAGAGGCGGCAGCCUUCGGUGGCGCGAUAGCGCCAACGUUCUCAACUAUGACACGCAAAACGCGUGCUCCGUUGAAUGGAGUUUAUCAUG

# Variants of: B1
# experiment_summary: polymerase ribozyme fitness, log enrichment relative to wild type (log ratio); higher = more active; in vitro selection for triplet polymerase activity
Variants at the floor of the assay were thinned out.
Give polymerase ribozyme fitness (log ratio) for every item shown.

*Q* Which polymerase ribozyme fitness (log ratio) is reported for this variant? G84A C93U C108G A137U
*A* ≤ -4.2

*Q* Item: C43G C54A U55A A73G G74C G124C
*A* ≤ -4.2

*Q* Item: U33G A52C G92C U139C
*A* ≤ -4.2

*Q* Item: A41U G59A A73G A89U C93G A107G
*A* ≤ -4.2

*Q* Item: A40G A73U A89G C93G U104G A106G U134A
*A* ≤ -4.2

*Q* Item: A24G G34A G58C C87A C99U
*A* ≤ -4.2

*Q* Item: U56A C79U G83A
*A* ≤ -4.2

*Q* Item: A20U A30U A37U C51G C93U C95A C96G C116G
*A* ≤ -4.2

*Q* Item: A28G G34A G83C C118G
*A* ≤ -4.2

*Q* Item: A17G C72U G88U U102C C105G
*A* ≤ -4.2

*Q* Item: A73C A91G C116U
*A* ≤ -4.2

*Q* Item: G50C C95U
*A* -3.47

*Q* Item: A19C G62U C95U C96A
*A* -2.36

*Q* Item: G65A A97G C99G
*A* -3.75

*Q* Item: "G34A"
*A* -0.292

*Q* Item: G83A A98U
*A* -0.299

*Q* Item: A52U A73U A89C G92C C129G A137U
*A* ≤ -4.2

*Q* Item: A52G U104A A122G U139G
*A* -1.23

*Q* Item: G81A C85A G136A
*A* 0.0509

*Q* Item: A29C A52G G83C A106C
*A* ≤ -4.2

*Q* Item: U6G C57A C85A C95U
*A* -0.326

*Q* Item: C54A C57A C87A A89G
*A* ≤ -4.2

*Q* Item: A40C A64G G83U G133C A138C
*A* ≤ -4.2
